Method Description: clinical
Settings: human, in vivo, AUC0-4h, geometric mean (geometric CV), phase V: gemfibrozil 600 mg b.i.d. 3 days pretreatment + full cocktail
Property Name: AUC(0-t) (ng·h/mL)
Quick reminder: number only, in ng·h/mL, skip the unit.

Name the reported AUC(0-t) value associated with the molecule CCOc1cc(CC(=O)N[C@@H](CC(C)C)c2ccccc2N2CCCCC2)ccc1C(=O)O [Repaglinide, repaglinide]
4.93

###

Method Description: Plasma pharmacokinetics of cocktail index drugs and their metabolites, five-phase crossover trial
Settings: human, plasma, oral, Cmax, geometric mean (geometric CV), phase II: Geneva cocktail
Here, each record is paired with measured Cmax data.

1) Cn1c(=O)c2c(ncn2C)n(C)c1=O [Caffeine, caffeine] = 1130 ng/mL
2) COc1ccc2nc(S(=O)(=O)Cc3ncc(C)c(OC)c3C)[nH]c2c1 [Omeprazole sulfone, omeprazole sulfone] = 35.3 ng/mL

// next entry
Quick one: Cmax of Cn1c(=O)[nH]c2ncn(C)c2c1=O [Paraxanthine, paraxanthine] ?
374 ng/mL

###

Method Description: clinical
Settings: human, in vivo, 0.05 mg, AUC0-4h, geometric mean (geometric CV), phase I: repaglinide 0.05 mg alone
Property Name: AUC(0-t) (ng·h/mL)
I only need the number, in ng·h/mL, no unit after it.

Endpoint output: AUC(0-t) of CCOc1cc(CC(=O)N[C@@H](CC(C)C)c2ccccc2N2CCCCC2)ccc1C(=O)O [Repaglinide, repaglinide] . Value?
0.936

###

Method Description: Plasma pharmacokinetics of cocktail index drugs and their metabolites, five-phase crossover trial
Settings: phase V: gemfibrozil 600 mg b.i.d. 3 days pretreatment + full cocktail
Property Name: AUC0-23h, geometric mean (geometric CV)

1) COc1ccc2nc([S+]([O-])Cc3ncc(CO)c(OC)c3C)[nH]c2c1 (stereo not shown) [5’-OH-omeprazole, 5′‐hydroxyomeprazole] = 253 (37.6%) ng×h/mL
2) C[C@H]1NC(C)(C)CO[C@]1(O)c1cccc(Cl)c1 [OH-bupropion, hydroxybupropion] = 585 (43.5%) ng×h/mL
3) OCc1ncc2n1-c1ccc(Cl)cc1C(c1ccccc1F)=NC2 [1’-OH-midazolam, 1′‐hydroxymidazolam] = 7.33 (41.1%) ng×h/mL

Consider the compound shown here: COc1ccc2[nH]c([S+]([O-])Cc3ncc(C)c(OC)c3C)nc2c1 (stereo not shown) What is its recorded AUC0-23h, geometric mean (geometric CV)?
150 (62.8%) ng×h/mL

###

Method Description: Plasma pharmacokinetics of cocktail index drugs and their metabolites, five-phase crossover trial;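 note: parameters derived from plasma drug levels quantified by LC–MS with internal standards after acetonitrile protein precipitation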
Settings: phase II: Geneva cocktail
Property Name: Tmax, median (range)

Example molecules with recorded Tmax, median (range):
1) Cc1ncc2n1-c1ccc(Cl)cc1C(c1ccccc1F)=NC2 [Midazolam, midazolam] = 0.5 (0.5-1.0) h
2) OCc1ncc2n1-c1ccc(Cl)cc1C(c1ccccc1F)=NC2 [1’-OH-midazolam, 1′‐hydroxymidazolam] = 1.0 (0.5-1.0) h
3) COc1ccc2c(c1)[C@]13CCCC[C@@H]1[C@H](C2)N(C)CC3 [Dextromethorphan, dextromethorphan] = 2.0 (2.0-4.0) h
4) COc1ccc2nc([S+]([O-])Cc3ncc(CO)c(OC)c3C)[nH]c2c1 (centres unmarked) [5’-OH-omeprazole, 5′‐hydroxyomeprazole] = 1.5 (1.0-2.0) h

// moving on: another record for Tmax, median (range)
Item under review: C[C@H]1NC(C)(C)CO[C@]1(O)c1cccc(Cl)c1 [OH-bupropion, hydroxybupropion] . Reported Tmax, median (range)?
3.0 (2.0-4.0) h
